Biological target: T1, human Nectin-4 extracellular antigen hNectin-4-His (human, UniProt Q96NY8 32-349)
T1 construct: C-terminal 8xHis tag included
T1 sequence: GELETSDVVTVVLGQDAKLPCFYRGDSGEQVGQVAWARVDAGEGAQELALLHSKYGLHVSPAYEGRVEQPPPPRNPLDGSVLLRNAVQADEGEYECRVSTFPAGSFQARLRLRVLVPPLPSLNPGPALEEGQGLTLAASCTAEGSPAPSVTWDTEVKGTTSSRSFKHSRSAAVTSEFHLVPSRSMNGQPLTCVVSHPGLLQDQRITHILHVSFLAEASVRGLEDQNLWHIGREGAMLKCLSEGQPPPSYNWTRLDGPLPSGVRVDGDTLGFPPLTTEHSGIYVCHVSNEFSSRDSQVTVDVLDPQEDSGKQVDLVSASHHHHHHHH
Assay: ELISA, phage scFv supernatant 1:50
readout-type: OD value (OD)
Give the number; OD is assumed, so skip it.

| binder | OD value, OD |
| --- | --- |
| 10F4-1G5 scFv (scFv, V domains shown, phage clone supernatant) VH: EVQLVESGGGLVQPGGSLRLSCAASGYTFDSSWMSWVRQAPGKGLEWVSSIDAYGDYNFYADSVKGRFTISRDNSKNTLYLQMNSLRAEDTAVYYCAREYSDVVDYVSVRTPLDYWGQGTLVTVSS VL: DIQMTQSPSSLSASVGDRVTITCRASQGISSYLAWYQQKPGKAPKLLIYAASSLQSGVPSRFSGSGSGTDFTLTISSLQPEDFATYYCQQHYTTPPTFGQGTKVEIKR | 1.41 |

Then this binder:
Q: What OD value value was documented for this binder, 1G8-1D11 scFv (scFv, V domains shown, phage clone supernatant) VH: EVQLVESGGGLVQPGGSLRLSCAASGDIFTGYAMSWVRQAPGKGLEWVSRIDGTGDSKFYADSVKGRFTISRDNSKNTLYLQMNSLRAEDTAVYYCARQTEDRSYGYDLDYWGQGTLVTVSS VL: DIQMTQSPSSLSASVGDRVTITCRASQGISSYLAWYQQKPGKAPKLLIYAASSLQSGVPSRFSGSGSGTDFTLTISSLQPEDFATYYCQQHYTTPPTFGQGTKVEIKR ?
Result: 1.59
